Entry source: ChEMBL document CHEMBL4017507

Test system: HEL
Assay: Cytotoxicity against human HEL cells assessed as cell growth inhibition by cell counting method
Format: cell-based
Can you tell me CC50 for the items I'm about to list?

Could I get CC50 for every one of these entries?
1. C[C@H](NP(=O)(OCC(CO)CCn1cnc2c(=O)[nH]c(N)nc21)Oc1ccccc1)C(=O)OCc1ccccc1 (some centres not stated)
2. CCCOC(=O)[C@H](C)NP(=O)(OCC(CCn1cnc2c(OC)nc(N)nc21)COP(=O)(N[C@@H](C)C(=O)OCCC)Oc1cccc2ccccc12)Oc1cccc2ccccc12 (some centres not stated)
3. C[C@H](NP(=O)(OCC(CO)OCn1cnc2c(=O)[nH]c(N)nc21)Oc1ccccc1)C(=O)OCc1ccccc1 (some centres not stated)
4. C[C@H](NP(=O)(OCC(CO)CCn1cnc2c(=O)[nH]c(N)nc21)Oc1cccc2ccccc12)C(=O)OCc1ccccc1 (some centres not stated)
5. C[C@H](NP(=O)(OCC(COP(=O)(N[C@@H](C)C(=O)OCc1ccccc1)Oc1ccccc1)OCn1cnc2c(=O)[nH]c(N)nc21)Oc1ccccc1)C(=O)OCc1ccccc1 (some centres not stated)

> 100 µM
4.9 µM
≥ 81 µM
> 100 µM
> 100 µM

Give CC50 for all molecules that follow.
1. CC(C)(NP(=O)(OCC(CO)CCn1cnc2c(=O)[nH]c(N)nc21)Oc1ccccc1)C(=O)OCc1ccccc1 (configuration not stated)
2. Nc1nc(Cl)c2ncn(CCC(CO)CO)c2n1
3. C[C@H](NP(=O)(OCC(CCn1cnc2c(=O)[nH]c(/N=C/N(C)C)nc21)COP(=O)(N[C@@H](C)C(=O)OCc1ccccc1)Oc1ccccc1)Oc1ccccc1)C(=O)OCc1ccccc1 (some centres not stated)
4. C[C@H](NP(=O)(OCC(COP(=O)(N[C@@H](C)C(=O)OCc1ccccc1)Oc1cccc2ccccc12)OCn1cnc2c(=O)[nH]c(N)nc21)Oc1cccc2ccccc12)C(=O)OCc1ccccc1 (some centres not stated)
5. COc1nc(N)nc2c1ncn2CCC(CO)COP(=O)(N[C@@H](C)C(=O)OCc1ccccc1)Oc1cccc2ccccc12 (some centres not stated)
6. C[C@H](NP(=O)(OCC(CCn1cnc2c(=O)[nH]c(/N=C/N(C)C)nc21)COP(=O)(N[C@@H](C)C(=O)OCc1ccccc1)Oc1cccc2ccccc12)Oc1cccc2ccccc12)C(=O)OCc1ccccc1 (some centres not stated)
7. Nc1nc2c(ncn2COCCO)c(=O)[nH]1

> 50 µM
> 100 µM
47 µM
> 100 µM
49 µM
19 µM
787 µM
